Overview of reported IC50 across a group of compounds:
- subject-of-test: Cbl-b (Homo sapiens, UniProt Q13191)
- Sequence (Q13191 36-427): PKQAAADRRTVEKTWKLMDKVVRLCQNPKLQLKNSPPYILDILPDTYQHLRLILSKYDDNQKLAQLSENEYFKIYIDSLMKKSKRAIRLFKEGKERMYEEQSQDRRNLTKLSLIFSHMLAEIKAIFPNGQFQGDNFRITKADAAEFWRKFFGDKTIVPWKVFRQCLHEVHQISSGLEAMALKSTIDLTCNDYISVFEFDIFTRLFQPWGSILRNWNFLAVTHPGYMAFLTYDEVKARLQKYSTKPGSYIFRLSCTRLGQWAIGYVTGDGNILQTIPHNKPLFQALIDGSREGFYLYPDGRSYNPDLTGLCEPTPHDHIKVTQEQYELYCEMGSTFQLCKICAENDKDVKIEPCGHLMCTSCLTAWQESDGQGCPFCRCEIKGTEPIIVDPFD
- experimental-details: Cbl-b activity assay (Cbl-b inhibition assay), TR-FRET of Cbl-b interaction with UbcH5B-Ub
- Format: biochemical
- run-parameters: assay buffer with 100 mM NaCl, 60 nM Src kinase; read-out: Cbl-b activity IC50

- compound: "Cn1cnnc1CC1(c2cccc(NC(=O)c3cc(C4CC4)nc(C(F)(F)F)n3)c2)COC1 [Compound 341]"
  IC50: "< 100 nM"
- compound: "Cn1cnnc1[C@@H]1C[C@@H]1c1cccc(N2Cc3c(cc(C#N)cc3C(F)(F)F)C2=O)c1 [Compound 408]"
  IC50: "100 to 300 nM"
- compound: "C[C@H](Cc1nncn1C)c1cccc(N2Cc3c(cc(CN4CC(F)(F)C4)cc3C(F)(F)F)C2=O)c1 [Compound 402]"
  IC50: "< 100 nM"
- compound: "C[C@H](Cc1nncn1C)c1cccc(N2Cc3c(cc(CN4CC(O)C(F)(F)C4)cc3C(F)(F)F)C2=O)c1 (stereo partly shown) [Compound 417]"
  IC50: "< 100 nM"
- compound: "Cn1cnnc1CC(C)(C)c1cccc(N2Cc3c(cccc3C(F)(F)F)C2=O)c1 [Compound 300]"
  IC50: "< 100 nM"
- compound: "C[C@@H]1[C@@H](c2nncn2C)[C@H]1c1cccc(N2Cc3c(cccc3C(F)(F)F)C2=O)c1 [Compound 375]"
  IC50: "< 100 nM"
- compound: "CNS(=O)(=O)c1cc(C(=O)Nc2cccc([C@H](C)Cc3nncn3C)c2)nc(C(F)(F)F)c1 [Compound 201]"
  IC50: "100 to 300 nM"
